Molecular target: Sodium-dependent noradrenaline transporter (Homo sapiens, UniProt P23975)
Sequence (P23975 whole entry): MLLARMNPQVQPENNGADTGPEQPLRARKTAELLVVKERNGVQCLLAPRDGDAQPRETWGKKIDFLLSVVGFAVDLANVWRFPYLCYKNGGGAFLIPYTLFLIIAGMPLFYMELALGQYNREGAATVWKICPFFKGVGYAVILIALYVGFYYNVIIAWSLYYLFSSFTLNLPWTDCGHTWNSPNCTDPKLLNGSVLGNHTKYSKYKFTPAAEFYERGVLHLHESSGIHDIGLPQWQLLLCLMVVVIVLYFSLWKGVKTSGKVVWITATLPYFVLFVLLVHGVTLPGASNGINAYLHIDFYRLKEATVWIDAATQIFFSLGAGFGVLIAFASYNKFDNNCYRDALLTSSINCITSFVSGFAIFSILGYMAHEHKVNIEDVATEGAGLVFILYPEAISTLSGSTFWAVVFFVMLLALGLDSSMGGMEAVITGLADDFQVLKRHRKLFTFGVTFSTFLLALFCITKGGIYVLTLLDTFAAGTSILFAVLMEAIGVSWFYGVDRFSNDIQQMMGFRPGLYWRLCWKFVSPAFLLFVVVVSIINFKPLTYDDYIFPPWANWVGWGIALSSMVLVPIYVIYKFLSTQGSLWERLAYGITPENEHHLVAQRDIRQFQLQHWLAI
Experiment: DRUGMATRIX: Norepinephrine Transporter radioligand binding (ligand: [125I] RTI-55)
Assay type: cell membranes, MDCK, Membrane
Details: Not Active = under 50% inhibition at 10 µM; read-out: Ki
property_label: Ki (nM)
Your answer should be a plain number; it is taken to be in nM.

O=C(/C=C/c1ccc(O)c(O)c1)OCCc1ccccc1: 3760

Query compound follows.
Request: Under Sodium-dependent noradrenaline transporter (Homo sapiens, UniProt P23975): Ki value of CC[C@]1(O)CC[C@H]2[C@@H]3CCC4=CCCC[C@@H]4[C@H]3CC[C@@]21C ?
Result: 2080
